# TEST_SYSTEM: UniProtKB P23975
# TEST_DETAILS: hNET Assay Procedure Protocol A: inhibition of [3H] NE uptake (MDCK cells) (hNET uptake)
# RECORDED_CONDITIONS: MDCK cells expressing hNET, [3H] NE 16 nM
PROPERTY: IC50 (nM)
Express the result in nM but write the number alone.

Challenge: Report its IC50 with UniProtKB P23975 as the test system: O=S1(=O)N(CCCCN2CCOCC2)c2ccccc2N1c1ccc(Cl)cc1 [Example 180]
Response given: 1760

---

# TEST_DETAILS: Rat Liver Microsomal Stability Assay
# Type: in vitro ADME
# RECORDED_CONDITIONS: pH 7.4; rat liver microsomes, 37° C., NADPH, Time 0 and Time 15 min; read-out: RLM stability t1/2
PROPERTY: half-life at 1 µM (min)
The reply should be a number in min, with the unit left off.

Some entries whose results are on file:
MOLECULE | ENDPOINT_RESULT
O=S1(=O)N(CCC2CNCCO2)c2ccccc2N1c1ccc(F)cc1 (stereo not drawn) [Example 137] | 9
O=S1(=O)N(CC[C@H]2CNCCO2)c2ccccc2N1c1ccccc1 [Example 135] | 5
O=S1(=O)N(CC[C@@H]2CNCCO2)c2ccccc2N1c1ccccc1 [Example 136] | 3
O=S1(=O)N(CC[C@H]2CNCCO2)c2ccccc2N1c1ccccc1F [Example 148] | 4
O=S1(=O)N(CC[C@H]2CNCCO2)c2ccccc2N1c1c(F)cccc1F [Example 150] | 3

Challenge: Check the records and state half-life at 1 µM for O=S1(=O)N(CC[C@@H]2CNCCO2)c2ccccc2N1c1ccc(F)cc1 [Example 139]
Response given: 10

Challenge: Return half-life at 1 µM for the following molecule: O=S1(=O)N(CC[C@@H]2CNCCO2)c2ccccc2N1c1ccccc1F [Example 149]
Response given: 5

Challenge: Look up and report measured half-life at 1 µM for this entry: O=S1(=O)N(CC[C@H]2CNCCO2)c2ccccc2N1c1ccc(F)cc1F [Example 141]
Response given: 2

Challenge: Please give measured half-life at 1 µM of the following entry: COc1cccc(N2c3ccccc3N(CC[C@H]3CNCCO3)S2(=O)=O)c1 [Example 146]
Response given: 5

---

# TEST_SYSTEM: Dopamine Transporter (hDAT) (Homo sapiens, UniProt Q01959)
# Sequence (Q01959 whole entry): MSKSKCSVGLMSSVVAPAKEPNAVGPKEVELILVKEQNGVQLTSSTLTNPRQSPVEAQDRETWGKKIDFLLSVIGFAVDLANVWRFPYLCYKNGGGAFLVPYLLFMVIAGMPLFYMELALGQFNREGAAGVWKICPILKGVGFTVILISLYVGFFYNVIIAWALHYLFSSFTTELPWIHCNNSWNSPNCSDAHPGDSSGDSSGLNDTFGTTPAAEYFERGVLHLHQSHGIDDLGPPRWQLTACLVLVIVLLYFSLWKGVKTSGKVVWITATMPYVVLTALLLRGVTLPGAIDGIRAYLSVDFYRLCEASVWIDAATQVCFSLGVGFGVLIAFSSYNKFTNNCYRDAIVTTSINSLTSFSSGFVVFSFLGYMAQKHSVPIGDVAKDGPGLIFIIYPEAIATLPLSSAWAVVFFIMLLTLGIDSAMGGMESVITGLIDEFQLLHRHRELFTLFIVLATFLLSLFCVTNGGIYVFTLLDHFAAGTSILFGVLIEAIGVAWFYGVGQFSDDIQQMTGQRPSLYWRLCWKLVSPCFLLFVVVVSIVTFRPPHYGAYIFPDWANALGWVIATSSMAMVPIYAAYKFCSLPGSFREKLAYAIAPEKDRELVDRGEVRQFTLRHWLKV
PROPERTY: IC50 (nM)
Give a bare numeral; the unit nM is implied.

Challenge: Answer with IC50 of O=S1(=O)N(CC[C@H]2CNCCO2)c2ccccc2N1c1ccccc1 measured for Dopamine Transporter (hDAT) (Homo sapiens, UniProt Q01959).
Response given: 479

---

Reported IC50 values are given for each entry in this list.
# TEST_SYSTEM: hNET (Homo sapiens)
# Sequence (P23975 whole entry): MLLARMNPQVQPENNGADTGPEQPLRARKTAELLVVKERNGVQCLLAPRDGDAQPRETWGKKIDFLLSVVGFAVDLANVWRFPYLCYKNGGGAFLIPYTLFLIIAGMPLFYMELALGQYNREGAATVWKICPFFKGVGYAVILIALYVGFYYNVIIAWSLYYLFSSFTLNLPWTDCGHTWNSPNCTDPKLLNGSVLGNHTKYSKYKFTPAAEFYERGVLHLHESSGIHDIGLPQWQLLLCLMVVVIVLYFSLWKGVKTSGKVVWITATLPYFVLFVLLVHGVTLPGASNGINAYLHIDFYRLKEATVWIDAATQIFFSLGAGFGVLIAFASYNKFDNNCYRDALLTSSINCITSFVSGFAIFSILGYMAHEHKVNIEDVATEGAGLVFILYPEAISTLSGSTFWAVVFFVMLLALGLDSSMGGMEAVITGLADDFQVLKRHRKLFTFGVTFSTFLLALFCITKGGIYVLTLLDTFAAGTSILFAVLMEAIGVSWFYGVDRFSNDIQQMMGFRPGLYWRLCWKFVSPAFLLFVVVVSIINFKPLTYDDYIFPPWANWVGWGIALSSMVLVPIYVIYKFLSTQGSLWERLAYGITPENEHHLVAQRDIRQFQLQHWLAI
# TEST_DETAILS: hNET binding according to Mahaney et al.
# RECORDED_CONDITIONS: hNET binding per footnote, printed in the NE uptake column
Counter-ions that a name gives are not always drawn.
Just so you know, I need the unit written after the number.

COMPOUND | IC50
CN(C)CCOCCN1c2ccccc2N(c2ccc(F)cc2F)S1(=O)=O [Example 170, hydrochloride] | 207 nM

Challenge: // Input: NCC1CCN(CCN2c3ccccc3N(c3ccccc3)S2(=O)=O)C1 (centres unmarked) [Example 105, dihydrochloride] . Output its IC50 only.
Response given: 289 nM

The measured values listed here are drawn from patent US7601722B2.
